target: Serine/threonine-protein kinase B-raf (Homo sapiens)
Sequence (P15056 whole entry): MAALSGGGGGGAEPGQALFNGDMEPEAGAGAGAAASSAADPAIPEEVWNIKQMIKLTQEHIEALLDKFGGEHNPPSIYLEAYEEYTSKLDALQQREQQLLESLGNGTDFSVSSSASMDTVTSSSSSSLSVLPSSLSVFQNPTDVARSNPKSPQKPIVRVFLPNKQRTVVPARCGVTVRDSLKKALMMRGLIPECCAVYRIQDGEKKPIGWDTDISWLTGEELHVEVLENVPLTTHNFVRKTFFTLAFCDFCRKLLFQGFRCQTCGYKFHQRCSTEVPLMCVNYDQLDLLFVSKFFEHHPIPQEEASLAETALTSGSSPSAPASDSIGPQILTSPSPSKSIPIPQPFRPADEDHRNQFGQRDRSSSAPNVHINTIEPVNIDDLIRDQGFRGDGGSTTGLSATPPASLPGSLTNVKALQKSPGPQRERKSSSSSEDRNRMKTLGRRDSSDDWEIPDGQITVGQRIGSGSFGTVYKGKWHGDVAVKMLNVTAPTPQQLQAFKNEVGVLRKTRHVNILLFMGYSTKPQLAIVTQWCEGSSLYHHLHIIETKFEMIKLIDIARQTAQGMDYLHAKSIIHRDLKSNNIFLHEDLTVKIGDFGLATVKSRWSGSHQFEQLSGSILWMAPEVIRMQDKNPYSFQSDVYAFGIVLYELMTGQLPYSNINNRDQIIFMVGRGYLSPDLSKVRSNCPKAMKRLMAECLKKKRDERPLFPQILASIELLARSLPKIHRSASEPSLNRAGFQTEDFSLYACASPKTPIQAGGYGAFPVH

{"compound": "CNC(=O)Nc1ccc2c(c1)CC[C@@]21OC(=O)N(CC(=O)N(Cc2ccc(F)cc2)[C@@H](C)C(F)(F)F)C1=O", "IC50": "> 10 µM"}

---

system: A-375; experiment: Antiproliferative activity against human A-375 cells assessed as inhibition of cell viability incubated for 3 to 5 days by Celltiter-Glo luminescent assay; type: functional, cell-based

{"compound": "CNC(=O)Nc1ccc2c(c1)CC[C@@]21OC(=O)N(CC(=O)N(Cc2ccc(F)cc2)[C@@H](C)C(F)(F)F)C1=O", "EC50": "> 10 µM"}

---

tested on: Farage; assay: Antiproliferative activity against human Farage cells assessed as inhibition of cell viability incubated for 3 to 5 days by Celltiter-Glo luminescent assay; type: functional, cell-based
attribute.measured: EC50

{"compound": "CNC(=O)Nc1ccc2c(c1)CC[C@@]21OC(=O)N(CC(=O)N(Cc2ccc(F)cc2)[C@@H](C)C(F)(F)F)C1=O", "value": "> 10 µM"}

Source listed as ChEMBL document CHEMBL5649168.
